FYI, the data here is from patent US12522597B2.

Listed here: items and their measured EC50.
# Tested on: mHTT protein
# PROCEDURE SUMMARY: mHTT protein assay (2B7-MW1, Mesoscale Discovery)
# Assay type: cell-based, human
# CONDITION DETAILS: GM04724 (CAG 70/20) Huntington's disease patient lymphoblast cells, 48 hours, 2B7-MW1 MSD; read-out: HTT Potency - Protein EC50 mHTT (average)
MEASUREMENT TYPE: EC50

In [3]: df
Out[3]:
                                   molecule         reported
0  Cn1cc(-c2ccc(-c3ccc(O[C@H]4C[C@@H]5CC[C@@H](N5)[C@H]4F)nn3)c(O)c2)cn1 (single isomer, unassigned)     51 to 100 nM
1  Oc1cc(-n2cccn2)ccc1-c1ccc(O[C@@H]2C[C@H]3CC[C@H](N3)[C@@H]2F)nn1 (single isomer, unassigned)    101 to 500 nM
2  Oc1cc2ccncc2cc1-c1ccc(O[C@@H]2C[C@H]3CCC[C@H](N3)[C@@H]2F)nn1 (single isomer, unassigned)  501 to 10000 nM
